Measured values drawn from patent US20260224688A1 for this set.

measurement notes: Dynamic light scattering of lipid nanoparticles (size, PDI)
Type: physicochemical
test context: LNP with cationic lipid CL-C
Recorded Size by entry
measured parameter: Size (nm)

1) CCCCCCCCCC(CCCCCCCCC)C(=O)OCC(COP(=O)(O)OCCN(C)C)OC(=O)C(CCCCCCCCC)CCCCCCCCC (stereo not drawn) : 110.1
2) CCCCCCCCC(CCCCCCCC)OC(=O)CCCCCCC(=O)OCC(COP(=O)(O)OCCN(C)C)OC(=O)CCCCCCC(=O)OC(CCCCCCCC)CCCCCCCC (stereo not drawn) : 110.1
3) CCCCCCCCC(CCCCCCCC)C(=O)OCCCCCC(=O)OCC(COP(=O)(O)OCCN(C)C)OC(=O)CCCCCOC(=O)C(CCCCCCCC)CCCCCCCC (stereo not drawn) : 110.9
4) CC(C)CCCCOC(=O)CCCCCCC(=O)OCC(COP(=O)(O)OCCN(C)C)OC(=O)CCCCCCC(=O)OCCCCC(C)C (stereo not drawn) : 91.1
5) CCCCCCCCC(CCCCCCCC)OC(=O)CCCCCCC(=O)OC[C@H](COP(=O)(O)OCCN(C)C)OC(=O)CCCCCCC(=O)OC(CCCCCCCC)CCCCCCCC : 101.4
6) CCCCCCCCOC(=O)CCCCCCCC(=O)OC(COC(=O)CCCCCCC(=O)OC(CCCCCCCC)CCCCCCCC)COP(=O)(O)OCCN(C)C (stereo not drawn) : 85.5
